type: in vivo, human; settings: human, plasma, po, 5 mg
outcomeMeasure: AUC(0-t)

// AUC(0-t) lookup, key: Cc1ncc2n1-c1ccc(Cl)cc1C(c1ccccc1F)=NC2 [Midazolam, midazolam]
62.1 ng·h/mL

###

type: in vivo, human; conditions: human, plasma, intravenous
outcomeMeasure: clearance (mL/min)
Just the number in mL/min, nothing appended.

// clearance lookup, key: CN1CCN(c2ccc(Nc3ncc4cc5n(c4n3)C3(CCCCC3)CNC5=O)nc2)CC1 [Trilaciclib, trilaciclib]
3520

###

assay type: in vivo, human; conditions: human, plasma, iv, 200 mg/m2
outcomeMeasure: Cmax (ng/mL)
Just the number in ng/mL, nothing appended.

// Cmax lookup, key: CN1CCN(c2ccc(Nc3ncc4cc5n(c4n3)C3(CCCCC3)CNC5=O)nc2)CC1 [Trilaciclib, trilaciclib]
1770
